# ASSAYED_SYSTEM: Tubulin (Homo sapiens) (UniProt P68371+Q9H4B7+P0DPH7+P68366+Q13509+Q71U36+P04350+Q3ZCM7+P07437+P68363+Q9BQE3+Q6PEY2+Q13885+Q9BVA1+Q9BUF5)
# TEST_PROTOCOL: Stabilization of microtubules in human QBI293 cells assessed as fold change in acetylated tubulin levels at 1 uM after 4 hrs by ELISA relative to cevipabulin
# Format: cell-based
MEASUREMENT_TYPE: fold change (FC)
API doc: respond with a numeric literal and nothing else, no unit.

Fc1cc(F)c(-c2c(Cl)nc3ncnn3c2NC2CC2)c(F)c1: 0.07

Could you share which fold change (FC) value was measured for `N#Cc1cc(F)c(-c2c(Cl)nc3ncnn3c2N2CCCCCCC2)c(F)c1` ?
0.58

Could you share which fold change (FC) value was measured for `CSc1cc(F)c(-c2c(Cl)nc3ncnn3c2N[C@@H](C)C(F)(F)F)c(F)c1` ?
0.27

Could you share which fold change (FC) value was measured for `C[C@H](Nc1c(-c2c(F)cc(S(C)(=O)=O)cc2F)c(Cl)nc2ncnn12)C(F)(F)F` ?
0.19

Could you share which fold change (FC) value was measured for `CC(C)[C@@H](C)Nc1c(-c2ccccc2F)c(Cl)nc2ncnn12` ?
0.2
